Tested on: MB231 cells
protocol.text: MTT assay (cytotoxicity), MB231 cells
Assay type: cell-based
test.conditions: 72 h treatment, Table 6.1
Protocol: MTT assays: LNCaP, 22Rv1, Du145, H1975, A549, MB231 and MCF-7 cells are maintained in RPMI 1640 supplemented with 10% FBS. Cells were seeded at a density of 6-7×10^3 cells per well in 96-well plates. After overnight incubation, cells in fresh RPMI 1640 supplemented with 10% FBS were exposed to DMSO vehicle control or test compounds at designated concentrations for 72 h. Viable cells were evaluated by MTT assays. Experiments were performed in triplicate and repeated at least twice.
Entries annotated with measured IC50
Write it as a number; the unit µM goes unstated.

[
  {
    "compound": "N#Cc1ccc(NC(=O)N/C=C/c2cccc(C(F)(F)F)c2)cc1C(F)(F)F [Compound 410]",
    "readout.number": 4
  }
]

// below: IC50 requested for another compound
Exercise: Quick one: IC50 for O=C(N/C=C/c1cccc(C(F)(F)F)c1)Nc1cnccn1 [Compound 558] ?
Solution: 0.3
